Each recorded value in this set is attributed to patent US12617779B2.

test_name: Evaluation of conversion rate to active form in buffer solution (Experimental Example 1)
Type: physicochemical
measurement_setup: pH6.0, 3 hr
recorded_endpoint: Residual rate (%)

Study these solved cases before continuing.
> print(dat)
                                   compound  measured.value
1  CCOC(=O)O[C@@H]1CN(C)CC[C@@H]1c1c(O)cc(O)c2c(=O)cc(-c3ccccc3Cl)oc12 [Comparative Example 3, reference compound]            90.9
2  CNC(=O)O[C@@H]1CN(C)CC[C@@H]1c1c(O)cc(O)c2c(=O)cc(-c3ccccc3Cl)oc12 [Comparative Example 5, reference compound]            94.0

(a) C[C@H](N)C(=O)O[C@@H]1CN(C)CC[C@@H]1c1c(O)cc(O)c2c(=O)cc(-c3ccccc3Cl)oc12 [Comparative Example 7, reference compound]
(b) CCNC(=O)O[C@@H]1CN(C)CC[C@@H]1c1c(O)cc(O)c2c(=O)cc(-c3ccccc3Cl)oc12 [Comparative Example 4, reference compound]
Lab note: check whether a or b has the lower measured Residual rate. Lab note: record the label of whichever item you select.
a

* * *

test_name: Evaluation of conversion rate to active form in buffer solution (Experimental Example 1)
Format: physicochemical
measurement_setup: pH6.0, 0.5 hr
recorded_endpoint: Production rate of Alvocidib (%)

(P) CCOC(=O)O[C@@H]1CN(C)CC[C@@H]1c1c(O)cc(O)c2c(=O)cc(-c3ccccc3Cl)oc12 [Comparative Example 3, reference compound]
(Q) CN1CC[C@H](c2c(O)cc(O)c3c(=O)cc(-c4ccccc4Cl)oc23)[C@H](OC(=O)CN)C1 [Comparative Example 8, reference compound]
(R) CNC(=O)O[C@@H]1CN(C)CC[C@@H]1c1c(O)cc(O)c2c(=O)cc(-c3ccccc3Cl)oc12 [Comparative Example 5, reference compound]
Order the records so the highest Production rate of Alvocidib appears first and the lowest last. Note for the reader: the ranking is given by listing the labels in the order requested.
Q, P, R

* * *

test_name: Evaluation of conversion rate to active form in buffer solution (Experimental Example 1)
Type: physicochemical
measurement_setup: pH6.5, 0.5 hr
recorded_endpoint: Production rate of Alvocidib (%)

Study these solved cases before continuing.
> print(dat)
                                   molecule             recorded.endpoint  measured.value
1  CNC(=O)Oc1cc(O)c2c(=O)cc(-c3ccccc3Cl)oc2c1[C@H]1CCN(C)C[C@H]1O [Comparative Example 2, reference compound]  Production rate of Alvocidib            98.3
2  CNCCN(C)C(=O)Oc1cc(O)c2c(=O)cc(-c3ccccc3Cl)oc2c1[C@H]1CCN(C)C[C@H]1O [Comparative Example 14, reference compound]  Production rate of Alvocidib            97.0
3  CN1CC[C@H](c2c(OC(=O)N(C)CCN)cc(O)c3c(=O)cc(-c4ccccc4Cl)oc23)[C@H](O)C1 [Comparative Example 13, reference compound]  Production rate of Alvocidib            51.7

(P) CNC(=O)O[C@@H]1CN(C)CC[C@@H]1c1c(O)cc(O)c2c(=O)cc(-c3ccccc3Cl)oc12 [Comparative Example 5, reference compound]
(Q) CN1CC[C@H](c2c(O)cc(O)c3c(=O)cc(-c4ccccc4Cl)oc23)[C@H](OC(=O)CN)C1 [Comparative Example 8, reference compound]
# returns the entry with the larger Production rate of Alvocidib; inputs P and Q Lab note: record the label of whichever item you select.
Q

* * *

test_name: Liposome encapsulation test, remote loading method (Experimental Example 4);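 also: encapsulated compound as percent of compound amount introduced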
Type: physicochemical
measurement_setup: Compound concentration when encapsulated 10 mg/mL
recorded_endpoint: Encapsulation efficiency (%)
Give the number; % is assumed, so skip it.

Study these solved cases before continuing.
compound	Encapsulation efficiency [%]
CN1CC[C@H](c2c(OC(=O)N(CCCC(F)(F)F)CC3CCCCN3)cc(O)c3c(=O)cc(-c4ccccc4Cl)oc23)[C@H](O)C1 (stereo partly drawn) [Example 14]	28.4
CCN(CCC1CCCCN1)C(=O)Oc1cc(O)c2c(=O)cc(-c3ccccc3Cl)oc2c1[C@H]1CCN(C)C[C@H]1O (stereo partly drawn) [Example 16]	21.7
CCN(C[C@H]1CCCCN1)C(=O)Oc1cc(O)c2c(=O)cc(-c3ccccc3Cl)oc2c1[C@H]1CCN(C)C[C@H]1O [Example 2]	71.1

Consider the compound CN1CC[C@H](c2c(OC(=O)N(C)C[C@@H]3COCCN3)cc(O)c3c(=O)cc(-c4ccccc4Cl)oc23)[C@H](O)C1 [Example 17] and give its measured Encapsulation efficiency.
23.8

Consider the compound COCCN(CC1CCCCN1)C(=O)Oc1cc(O)c2c(=O)cc(-c3ccccc3Cl)oc2c1[C@H]1CCN(C)C[C@H]1O (stereo partly drawn) [Example 12] and give its measured Encapsulation efficiency.
36.2

Consider the compound CN1CC[C@H](c2c(OC(=O)N(C)CC3CCCCN3)cc(O)c3c(=O)cc(-c4ccccc4Cl)oc23)[C@H](O)C1 (stereo partly drawn) [Example 8] and give its measured Encapsulation efficiency.
61.1

* * *

Entries and their Residual rate values follow.
test_name: Stability evaluation of solution formulation (Experimental Example 2)
Format: physicochemical
measurement_setup: solution formulation, pH3.0, 2 week
Protocol: For Example 1, Example 2, Example 5, Example 6, Comparative Example 13 and Comparative Example 14, the attrition rate of the test compound and the conversion rate of the test compound to Alvocidib in a solution formulation were calculated by the following method. Example 1, Example 2, Example 5, Example 6, Comparative Example 13 and Comparative Example 14 were each added to buffer solutions adjusted to pH 3.0, 4.0 and 5.0, respectively, at a concentration of 0.1 mg/mL, and left at 5° C. […]
Give the number; % is assumed, so skip it.

Study these solved cases before continuing.
> print(dat)
                                   compound  measured.value
1  CCN(C[C@H]1CCCCN1)C(=O)Oc1cc(O)c2c(=O)cc(-c3ccccc3Cl)oc2c1[C@H]1CCN(C)C[C@H]1O            96.4
2  CN1CC[C@H](c2c(OC(=O)N(C)CCN)cc(O)c3c(=O)cc(-c4ccccc4Cl)oc23)[C@H](O)C1 [Comparative Example 13, reference compound]            99.5
3  CCCN(C[C@@H]1CCCCN1)C(=O)Oc1cc(O)c2c(=O)cc(-c3ccccc3Cl)oc2c1[C@H]1CCN(C)C[C@H]1O            98.1

Consider the compound CNCCN(C)C(=O)Oc1cc(O)c2c(=O)cc(-c3ccccc3Cl)oc2c1[C@H]1CCN(C)C[C@H]1O [Comparative Example 14, reference compound] and give its measured Residual rate.
95.8

Consider the compound CCCN(C[C@H]1CCCCN1)C(=O)Oc1cc(O)c2c(=O)cc(-c3ccccc3Cl)oc2c1[C@H]1CCN(C)C[C@H]1O and give its measured Residual rate.
98.8

* * *

test_name: Evaluation of conversion rate to active form in buffer solution (Experimental Example 1)
Assay type: physicochemical
measurement_setup: pH5.5, 2 hr, 37° C., 25 umol/L in buffer solution
Counter-ions that a name gives are not always drawn.
recorded_endpoint: Residual rate (%)
Give the number; % is assumed, so skip it.

Study these solved cases before continuing.
compound	Residual rate / %
CCCN(C[C@@H]1CCCCN1)C(=O)Oc1cc(O)c2c(=O)cc(-c3ccccc3Cl)oc2c1[C@H]1CCN(C)C[C@H]1O [Example 5]	94.5
CCCN(C[C@H]1CCCCN1)C(=O)Oc1cc(O)c2c(=O)cc(-c3ccccc3Cl)oc2c1[C@H]1CCN(C)C[C@H]1O [Example 6]	94.2
CN1CC[C@H](c2c(OC(=O)N(C)CC3CCCCN3)cc(O)c3c(=O)cc(-c4ccccc4Cl)oc23)[C@H](O)C1 (stereo partly shown) [Example 8]	93.4
COCCN(CC1CCCCN1)C(=O)Oc1cc(O)c2c(=O)cc(-c3ccccc3Cl)oc2c1[C@H]1CCN(C)C[C@H]1O (stereo partly shown) [Example 12]	73.8
CCN(CCC1CCCCN1)C(=O)Oc1cc(O)c2c(=O)cc(-c3ccccc3Cl)oc2c1[C@H]1CCN(C)C[C@H]1O (stereo partly shown) [Example 16]	85.7
CN1CC[C@H](c2c(OC(=O)N(CCC(F)(F)F)CC3CCCCN3)cc(O)c3c(=O)cc(-c4ccccc4Cl)oc23)[C@H](O)C1 (stereo partly shown) [Example 13]	67.1
CCN(C[C@@H]1CCCCN1)C(=O)Oc1cc(O)c2c(=O)cc(-c3ccccc3Cl)oc2c1[C@H]1CCN(C)C[C@H]1O [Example 1, ditrifluoroacetate]	95.3
CN1CC[C@H](c2c(OC(=O)N(Cc3ccccc3)CC3CCCCN3)cc(O)c3c(=O)cc(-c4ccccc4Cl)oc23)[C@H](O)C1 (stereo partly shown) [Example 15]	89.5
CCNC(=O)Oc1cc(O)c2c(=O)cc(-c3ccccc3Cl)oc2c1[C@H]1CCN(C)C[C@H]1O [Comparative Example 1, reference compound]	1.1
CN1CC[C@H](c2c(OC(=O)N(CCCC(F)(F)F)CC3CCCCN3)cc(O)c3c(=O)cc(-c4ccccc4Cl)oc23)[C@H](O)C1 (stereo partly shown) [Example 14]	48.6

Consider the compound CCN(CC1CCCCN1)C(=O)Oc1cc(O)c2c(=O)cc(-c3ccccc3Cl)oc2c1[C@H]1CCN(C)C[C@H]1O (stereo partly shown) [Example 7, dihydrochloride] and give its measured Residual rate.
96.2

Consider the compound CC(C)N(CC1CCCCN1)C(=O)Oc1cc(O)c2c(=O)cc(-c3ccccc3Cl)oc2c1[C@H]1CCN(C)C[C@H]1O (stereo partly shown) [Example 10] and give its measured Residual rate.
87.9

Consider the compound CN1CC[C@H](c2c(OC(=O)N(C)C[C@@H]3CCCCN3)cc(O)c3c(=O)cc(-c4ccccc4Cl)oc23)[C@H](O)C1 [Example 3] and give its measured Residual rate.
95.3
